Assay: Pharmacokinetics of Compounds 27, 40, 22 and 41 in ICR mice in different modes of administration
Format: in vivo
Conditions: ICR, mouse, in vivo, po, 30 mg/kg, PO (single)
From the text: WinNonlin® 6.4 was used as the calculation software for PK parameters.
ATTRIBUTE MEASURED: Cmax (ng/mL)

[
  {
    "STRUCTURE STRING": "COCCNc1ccc(CCNc2nc(N)n3nc(-c4ccco4)nc3n2)cc1",
    "UNIT ANNOTATION": "ng/mL",
    "OBSERVED RESULT": 14500
  },
  {
    "STRUCTURE STRING": "Nc1nc(NCCc2ccc(NC3COC3)cc2)nc2nc(-c3ccco3)nn12",
    "UNIT ANNOTATION": "ng/mL",
    "OBSERVED RESULT": 9650
  },
  {
    "STRUCTURE STRING": "Cn1nnc(-c2ccc(CCNc3nc(N)n4nc(-c5ccco5)nc4n3)cc2)n1",
    "UNIT ANNOTATION": "ng/mL",
    "OBSERVED RESULT": 14400
  }
]

###

Test: Pharmacokinetics of acetate of Compound 22 in SD rats with single and repeated administration
Assay type: in vivo
Conditions: both sexes, Sprague-Dawley, rat, plasma, po, 63 mg/kg, Group 3 PO 63 mg/kg single, Overall, read-out: AUC0-t
ATTRIBUTE MEASURED: AUC(0-t) (µg·h/mL)

[
  {
    "COMPOUND": "CC(=O)O.Nc1nc(NCCc2ccc(NC3COC3)cc2)nc2nc(-c3ccco3)nn12 [Acetate of Compound 22]",
    "OBSERVED RESULT": 112
  }
]

###

Assay: Pharmacokinetics of acetate of Compound 22 in SD rats with single and repeated administration
Format: in vivo
Conditions: Sprague-Dawley (SD), rat, plasma, po, 63 mg/kg, oral 63 mg/kg, read-out: drug exposure (AUC0-t)
Protocol: The formulation for Group 5 was prepared before administration on Day 1, and then, divided into daily doses and stored at 5±3° C. […] Pharmacokinetic data was calculated using the linear logarithmic trapezoidal method, with a weight of 1/(Y*Y). Samples with the sample concentration below the lower limit of quantification were excluded from the calculation of pharmacokinetic parameters. […]
ATTRIBUTE MEASURED: AUC(0-t) (µg·h/mL)

[
  {
    "COMPOUND": "CC(=O)O.Nc1nc(NCCc2ccc(NC3COC3)cc2)nc2nc(-c3ccco3)nn12 [Acetate of Compound 22]",
    "OBSERVED RESULT": 112
  }
]

###

Test: Pharmacokinetics of acetate of Compound 22 in SD rats with single and repeated administration
Format: in vivo
Conditions: both sexes, Sprague-Dawley, rat, plasma, po, 189 mg/kg, Group 4 PO 189 mg/kg single, Overall, read-out: Tmax (median)
Method: The formulation for Group 5 was prepared before administration on Day 1, and then, divided into daily doses and stored at 5±3° C. […] Pharmacokinetic data was calculated using the linear logarithmic trapezoidal method, with a weight of 1/(Y*Y). Samples with the sample concentration below the lower limit of quantification were excluded from the calculation of pharmacokinetic parameters. […]

[
  {
    "COMPOUND": "CC(=O)O.Nc1nc(NCCc2ccc(NC3COC3)cc2)nc2nc(-c3ccco3)nn12 [Acetate of Compound 22]",
    "Tmax (h)": 2
  }
]
